Target system: MAP kinase-activated protein kinase 3 (Homo sapiens, UniProt Q16644); note: in the data inactive means no Kd found up to 30 µM
Sequence (Q16644 whole entry): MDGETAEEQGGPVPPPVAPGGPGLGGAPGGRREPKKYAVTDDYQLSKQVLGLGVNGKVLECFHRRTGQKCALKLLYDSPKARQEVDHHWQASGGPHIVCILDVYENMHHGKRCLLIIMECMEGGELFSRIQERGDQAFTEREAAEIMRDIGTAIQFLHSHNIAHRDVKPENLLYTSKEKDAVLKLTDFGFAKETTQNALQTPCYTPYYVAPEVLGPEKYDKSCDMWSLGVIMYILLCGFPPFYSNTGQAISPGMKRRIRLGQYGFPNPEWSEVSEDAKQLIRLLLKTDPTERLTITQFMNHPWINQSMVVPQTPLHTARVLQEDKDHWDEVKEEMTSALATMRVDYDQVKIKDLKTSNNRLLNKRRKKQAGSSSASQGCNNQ
Active and inactive are the calls of the source.
Pick from active, inactive when you respond.

Q: Assay outcome for CN(C)C/C=C/C(=O)Nc1cc2c(Nc3ccc(F)c(Cl)c3)ncnc2cc1O[C@H]1CCOC1 [AFATINIB] : what was it?
Result: inactive

Q: Please state the recorded outcome for this compound: Cc1ccc(C(=O)Nc2ccc(Oc3cc4cnn(C)c4cc3-c3cn[nH]c3)c(F)c2)c(=O)n1-c1ccc(F)cc1 [MERESTINIB]
Result: inactive

Q: Can you look up the reported call for C[C@@H]1COC(Nc2ccc3ncnc(Nc4ccc(OCc5nccs5)c(Cl)c4)c3c2)=N1 [VARLITINIB] for me?
Result: inactive

Q: Identify the outcome logged in this assay for the compound shown: CNC(=O)c1cccc(-c2ccc3c(N4CCOC[C@@H]4C)nc(N4CCOC[C@@H]4C)nc3n2)c1 [VISTUSERTIB]
Result: inactive

Q: # outcome recorded in this test, key = Cc1cc(Nc2nc(N[C@@H](C)c3ncc(F)cn3)ncc2Cl)n[nH]1 [AZD-1480]
Result: inactive

Q: In this assay, the call recorded for C=CC(=O)Nc1cc(Nc2nccc(-c3cn(C)c4ccccc34)n2)c(OC)cc1N(C)CCN(C)C [OSIMERTINIB] was what?
Result: inactive

Q: Which outcome was entered for the compound FC(F)(F)c1ccc(CNc2ccc(Cc3c[nH]c4ncc(Cl)cc34)cn2)cn1 [PEXIDARTINIB] in this test?
Result: inactive

Q: Please state the recorded outcome for this compound: S=C(NCc1ccc2c(c1)OCO2)N1CCN(c2ncnc3c2oc2ccccc23)CC1 [AMUVATINIB]
Result: inactive

Q: Entry O=C(O)c1ccc2c(c1)nc(Nc1cccc(Cl)c1)c1ccncc12 [SILMITASERTIB] : call = ?
Result: active

Q: # lookup: test call for COCCN1CCN(Cc2ccc(-c3n[nH]c4c3C(=O)c3c(NC(=O)NN5CCOCC5)cccc3-4)cc2)CC1 [RGB-286638]
Result: inactive

###

Target system: Phosphorylase b kinase gamma catalytic chain, liver/testis isoform (Homo sapiens, UniProt P15735); note: in the data inactive means no Kd found up to 30 µM
Sequence (P15735 whole entry, canonical isoform): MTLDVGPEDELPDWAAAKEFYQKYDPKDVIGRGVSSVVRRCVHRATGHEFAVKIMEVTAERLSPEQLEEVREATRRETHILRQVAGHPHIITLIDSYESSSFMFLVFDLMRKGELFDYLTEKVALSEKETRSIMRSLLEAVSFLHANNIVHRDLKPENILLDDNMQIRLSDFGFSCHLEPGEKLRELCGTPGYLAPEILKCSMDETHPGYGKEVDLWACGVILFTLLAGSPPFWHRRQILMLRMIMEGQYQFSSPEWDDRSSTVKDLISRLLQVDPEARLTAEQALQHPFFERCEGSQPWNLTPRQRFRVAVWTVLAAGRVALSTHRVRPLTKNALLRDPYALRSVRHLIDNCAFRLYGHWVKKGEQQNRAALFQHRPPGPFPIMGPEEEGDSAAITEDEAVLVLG
Activity calls are given as the source filed them.
I would appreciate it if you answered using one of these outcomes: active, inactive

The following molecules have reported results that may help.
{"columns": ["Molecule", "Group label"],
 "data": [
  ["COc1cc2nccc(Oc3ccc(NC(=O)C4(C(=O)Nc5ccc(F)cc5)CC4)cc3)c2cc1OC [CABOZANTINIB]", "inactive"],
  ["C=CC(=O)Nc1cccc(Nc2nc(Nc3ccc(N4CCN(C(C)=O)CC4)cc3OC)ncc2C(F)(F)F)c1", "inactive"],
  ["CCOc1ccn(-c2ccc(F)cc2)c(=O)c1C(=O)Nc1ccc(Oc2ccnc(N)c2Cl)c(F)c1", "inactive"],
  ["O[C@H]1CC[C@H](Nc2ncc3nc(Nc4c(F)cc(F)cc4F)n([C@H]4CCOC4)c3n2)CC1", "inactive"],
  ["CCN1CCN(Cc2ccc(Nc3ncc(F)c(-c4cc(F)c5nc(C)n(C(C)C)c5c4)n3)nc2)CC1", "inactive"],
  ["Cc1ccc(C(=O)Nc2ccc(Oc3cc4cnn(C)c4cc3-c3cn[nH]c3)c(F)c2)c(=O)n1-c1ccc(F)cc1", "inactive"],
  ["O=c1[nH]c([C@@H]2CCCN2)nc2c1oc1ccc(Cl)cc12", "inactive"],
  ["COCCN1CCN(Cc2ccc(-c3n[nH]c4c3C(=O)c3c(NC(=O)NN5CCOCC5)cccc3-4)cc2)CC1", "inactive"]
]}

Q: Kindly provide the recorded test outcome for the following molecule: O=S(=O)(c1cccc2cnccc12)N1CCCNCC1
Result: inactive

Q: Look up the recorded call for Cn1cc(-c2[nH]c3cc(NC(=O)[C@H](N)C4CCCCC4)cc4c3c2C=NNC4=O)cn1 in this test.
Result: inactive

Q: Which result was noted for this molecule in the test: COc1cc2ncnc(Nc3ccc(O)cc3)c2cc1OC
Result: inactive

Q: Any idea what this test logged for FC(F)(F)c1ccc(CNc2ccc(Cc3c[nH]c4ncc(Cl)cc34)cn2)cn1 ?
Result: inactive

Q: Per the assay record, what outcome was assigned to CC(C)CC(=O)Nc1[nH]nc2c1CN(C(=O)C1CCN(C)CC1)C2(C)C ?
Result: active

Q: In this assay, the call recorded for COc1cc(Nc2ncc(F)c(Nc3ccc4c(n3)N(COP(=O)(O)O)C(=O)C(C)(C)O4)n2)cc(OC)c1OC was what?
Result: inactive

The measurements presented in this section are drawn from ChEMBL document CHEMBL3991601.
